- ASSAYED_TARGET: PDE10
- PROCEDURE_SUMMARY: MPDE10A7 enzyme inhibition, IMAP TR-FRET assay
- Type: biochemical
- CONDITION_CONTEXT: read-out: PDE10 IC50
VALUE_TYPE: pIC50
One number for each entry, as −log10 of the molar value.

Examples with answers:
COMPOUND	pIC50
FC(F)(F)c1ccc(NC2CC(Oc3ncncc3C3CCOCC3)C2)nc1 (centres unmarked) [Example 117]	6.49
CC(O)C1CCN(c2nccnc2OC2CC(Nc3nc4ccccc4s3)C2)CC1 (centres unmarked) [Example 102]	7.97
FC(F)(F)c1ccc(NC2CC(Oc3ncncc3C3CCOCC3)C2)nc1 (centres unmarked) [Example 116]	6.02
Clc1ccc(N[C@H]2C[C@H](Oc3ncccc3C3CCOCC3)C2)nc1 [Example 111]	7.08
N#Cc1ccc(N[C@H]2C[C@H](Oc3ncccc3C3CCOCC3)C2)nc1 [Example 107]	6.06
Fc1ccc(C2CCOCC2)c(OC2CC(Nc3nc4ccccc4s3)C2)n1 (centres unmarked) [Example 105]	9.12
FC(F)(F)c1ccc(N[C@H]2C[C@H](Oc3ncccc3C3CCOCC3)C2)nc1 [Example 108]	6.36
CC(=O)N1CCC(c2cccnc2OC2CC(NS(=O)(=O)c3ccc(C)cc3)C2)CC1 (centres unmarked) [Example 115]	6.04

Quick request: pIC50 for each listed item, please.
1. O=C(CO)N1CCC(c2nccnc2OC2CC(Nc3nc4ccccc4s3)C2)CC1 (centres unmarked) [Example 73]
2. FC1(F)CCN(c2nccnc2OC2CC(Nc3nc4ccccc4s3)C2)CC1 (centres unmarked) [Example 99]
3. CN1CCC(c2nccnc2O[C@H]2C[C@@H](Nc3nc4ccccc4s3)C2)CC1 [Example 74]
4. O=C1CCN(c2nccnc2OC2CC(Nc3nc4ccccc4s3)C2)CC1 (centres unmarked) [Example 98]
5. Clc1ccc(N[C@H]2C[C@@H](Oc3ncccc3C3CCOCC3)C2)nc1 [Example 110]
6. F[C@H]1CCN(c2nccnc2OC2CC(Nc3nc4ccccc4s3)C2)C1 (some centres unmarked) [Example 97]
7. N#Cc1ccc(N[C@H]2C[C@@H](Oc3ncccc3C3CCOCC3)C2)nc1 [Example 106]

## Result
1: 8.32; 2: 7.75; 3: 7.30; 4: 7.68; 5: 7.58; 6: 8.47; 7: 6.23

Quick request: pIC50 for each listed item, please.
1. CC(=O)N1CCC(c2cccnc2OC2CC(NS(=O)(=O)c3ccc(C)cc3)C2)CC1 (centres unmarked) [Example 114]
2. FC(F)(F)c1ccc(N[C@H]2C[C@@H](Oc3ncccc3C3CCOCC3)C2)nc1 [Example 109]

## Result
1. 4.91
2. 6.97

---

- ASSAYED_TARGET: PDE10
- PROCEDURE_SUMMARY: MPDE10A7 enzyme inhibition, IMAP TR-FRET assay
- Assay type: biochemical
- CONDITION_CONTEXT: separated enantiomers; absolute stereochemistry not determined, value can be for either enantiomer of the pair; read-out: IC50
pIC50: −log10 of the molar value.
Everything with pIC50 lower than 8 is condition not met; everything else, including exactly 8, is condition met.

## Task Is the recorded value of pIC50 equal to or greater than 8 for this molecule? OC[C@@H]1CCCN(c2nccnc2OC2CC(Nc3nc4ccccc4s3)C2)C1 (stereo partly drawn)
## Result condition met

## Task Is the recorded value of pIC50 equal to or greater than 8 for this molecule? N#C[C@H]1CCN(c2nccnc2OC2CC(Nc3nc4ccccc4s3)C2)C1 (stereo partly drawn)
## Result condition met

## Task Is the recorded value of pIC50 equal to or greater than 8 for this molecule? C[C@H]1CCN(c2nccnc2OC2CC(Nc3nc4ccccc4s3)C2)C1 (stereo partly drawn) [Example 93]
## Result condition met

## Task Is the recorded value of pIC50 equal to or greater than 8 for this molecule? OC[C@H]1CCCN(c2nccnc2OC2CC(Nc3nc4ccccc4s3)C2)C1 (stereo partly drawn)
## Result condition not met

## Task Is the recorded value of pIC50 equal to or greater than 8 for this molecule? N#C[C@@H]1CCN(c2nccnc2OC2CC(Nc3nc4ccccc4s3)C2)C1 (stereo partly drawn)
## Result condition met

Entry source: patent US8952037B2
